Data provenance: patent US9187434B2

System: human Notch 3
Assay info: Notch-CBF1 Transactivation Assay (Notch 3)
Assay type: cell-based
Test settings: HeLa cells co-transfected with truncated Notch 3 and CBF1 luciferase reporter; 18 hours incubation
Measure name: IC50 (nM)
Write the answer as a number in nM, unit excluded.

[in] Fill blank: measured IC50 of the compound `N#Cc1ccccc1N1C[C@H](NC(=O)[C@H](CCC(F)(F)F)[C@H](CC2CC2)C(N)=O)C(=O)Nc2c(Cl)cccc21` is ____.
[out] 46.2

====

Measured half-life at 0.5 μM accompanies every entry in the list below.
Assay info: Human metabolic stability half-life assay
Assay type: in vitro ADME
Test settings: liver microsomes, pH 7.4, human liver microsomes, 0.5 μM compound, NADPH, 45-minute time course, read-out: HLM t1/2

These solved cases illustrate the format of a correct answer.
[[record]]
molecule = "N#Cc1ccccc1N1C[C@H](NC(=O)[C@H](CCC(F)(F)F)[C@H](CC2CC2)C(N)=O)C(=O)Nc2c(Cl)cccc21 [Example 26]"
measure_name = "half-life at 0.5 μM"
observed_result = "≥ 31 min"

[[record]]
molecule = "NC(=O)[C@@H](CC1CC1)[C@@H](CCC(F)(F)F)C(=O)N[C@H]1CN(c2cccc(C3CC3)c2)c2cccc(Cl)c2NC1=O [Example 29]"
measure_name = "half-life at 0.5 μM"
observed_result = "≥ 31 min"


In the following, a different molecule is considered.
[in] Fill blank: measured half-life at 0.5 μM of the molecule N#Cc1cc(F)cc(N2C[C@H](NC(=O)[C@H](CCC(F)(F)F)[C@H](CC3CC3)C(N)=O)C(=O)Nc3c(Cl)cccc32)c1 [Example 28] is ____.
[out] ≥ 31 min
